Target: JAK2 (Homo sapiens (Human))
Assay: JAK2 Inhibition Assay (Omnia kinase fluorescence peptide substrate assay, 1 mM ATP)
Type: biochemical
pIC50: −log10 of the molar value.

compound	target	pIC50
CC[C@@H](CC1CC1)n1cc(-c2nc(-c3cnn(C[C@@H](O)CO)c3)cn3nccc23)cn1 [Example 205]	JAK2 (Homo sapiens (Human))	7.00 to 8.00

====

Biological target: JAK2 (Homo sapiens (Human), UniProt O60674)
Sequence (O60674 808-1132): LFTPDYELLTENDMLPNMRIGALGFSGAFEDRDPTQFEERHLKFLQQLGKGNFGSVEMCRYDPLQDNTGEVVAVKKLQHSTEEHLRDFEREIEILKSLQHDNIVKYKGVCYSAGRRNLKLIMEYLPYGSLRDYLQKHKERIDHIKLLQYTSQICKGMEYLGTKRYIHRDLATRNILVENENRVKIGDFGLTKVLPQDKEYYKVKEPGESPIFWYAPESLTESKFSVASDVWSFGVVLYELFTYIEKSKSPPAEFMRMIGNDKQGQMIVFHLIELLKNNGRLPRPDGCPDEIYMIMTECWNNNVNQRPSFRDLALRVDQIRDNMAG
Assay: JAK2 Inhibition Assay (Omnia kinase fluorescence peptide substrate assay, 1 mM ATP)
Format: biochemical
Conditions: read-out: JAK2 Enzyme IC50 1 mM ATP; 1 mM ATP; averaged IC50 ranges
Some compounds, each annotated with its measured IC50.
readout: IC50

smiles.code	readout	reported.value
CCC(CC)n1cc(-c2nc(-c3cnn(C4CN(S(C)(=O)=O)C4)c3)cn3nccc23)cn1	IC50	< 10 nM
CCC1(n2cc(-c3nc(-c4cnn(C)c4)cn4nccc34)cn2)CN(S(=O)(=O)C(F)(F)F)C1	IC50	< 10 nM
